experimental-system: hTREM2 (Homo sapiens, UniProt Q9NZC2)
Sequence (Q9NZC2 19-230): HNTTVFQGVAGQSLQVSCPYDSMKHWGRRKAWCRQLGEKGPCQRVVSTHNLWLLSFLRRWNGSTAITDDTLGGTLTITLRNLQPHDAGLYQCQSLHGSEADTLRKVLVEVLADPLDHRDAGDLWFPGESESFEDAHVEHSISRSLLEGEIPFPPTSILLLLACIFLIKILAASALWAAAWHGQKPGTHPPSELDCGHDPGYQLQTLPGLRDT
Sequence (O43914 22-113 partner): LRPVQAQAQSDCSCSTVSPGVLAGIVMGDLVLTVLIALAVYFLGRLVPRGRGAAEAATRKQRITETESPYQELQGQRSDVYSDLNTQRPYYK
test-summary: TREM2 activity by cellular Syk phosphorylation (AlphaScreen/AlphaLISA) in TREM2/DAP12-HEK cells, used for Examples 1-305
Assay type: cell-based
Set-up: expressed in transfected cells
cond: HEK293 Cells
readout-type: hTREM2 Emax

Use the examples below as a reference point.
CCc1ccc2c(-c3ccc(F)cc3F)nc(N3CCO[C@@H](c4cnn(C)c4)C3)nc2n1
++++ (Emax>250)
Cc1nc2nc(N3CCO[C@@H](c4cnn(C)c4)C3)nc(-c3ccc(Cl)cn3)c2nc1C
++++ (Emax>250)
Cc1nc2nc(N3CCO[C@H]([C@@H]4CCOC4)C3)nc(-c3ccc(F)cc3F)c2nc1C [Example 243]
++++ (Emax>250)
Cc1nc2nc(N3CCO[C@@H](c4cnn(C)c4)C3)nc(CCC(F)(F)F)c2nc1C
+ (Emax>45 and ≤100)

Ask: Recorded hTREM2 Emax of `Cc1nc2nc(N3CCO[C@@H](c4cnn(C)c4)C3)nc([C@H]3C[C@H](C(F)F)C3)c2nc1C` , please.
Result: ++ (Emax>100 and ≤150)

Ask: Recorded hTREM2 Emax of Cc1nc2nc(C3CCO[C@H](c4cnn(C)c4)C3)nc(-c3ccc(Cl)cc3F)c2nc1C (stereo in doubt) , please.
Result: ++++ (Emax>250)

---

pEC50 overview
experimental-system: hTREM2 (Homo sapiens)
test-summary: TREM2 activity by cellular Syk phosphorylation (AlphaScreen/AlphaLISA) in TREM2/DAP12-HEK cells, used for Examples 1-305
Assay type: cell-based
Design: expressed in transfected cells
cond: HEK293 Cells
pEC50: −log10 of the molar value.

Use the examples below as a reference point.
Cc1nc2nc(N3CCO[C@@H](c4cnn(C)c4)C3)nc([C@H]3CC[C@@H](C)CC3)c2nc1C [Example 135]
6.30 to 7.30
Cc1ccc2c(-c3ccc(Cl)cc3F)nc(N3CCO[C@@H](c4cnn(C5CC5)c4)C3)nc2n1 [Example 85]
≥ 7.30
Cc1nc2cc([C@@H]3CCO[C@H](c4cnn(C5CC5)c4)C3)nc(-c3ccc(Cl)cc3F)c2nc1C [Example 297]
4.00 to 5.52
Cc1nc2nc(N3CCO[C@@H](c4cnn(C)c4)C3)nc(C3=CC[C@@H](C(F)(F)F)CC3)c2nc1C (single isomer, unassigned) [Example 127]
≥ 7.30
CN1Cc2c(cc(N3CCO[C@@H](c4cnn(C)c4)C3)nc2-c2ccc(Cl)cc2F)C1=O [Example 119]
6.30 to 7.30
Cc1nc2nc(N3CCO[C@@H](c4cnn(C)c4)C3)nc(C34CC(C(F)(F)F)(C3)C4)c2nc1C [Example 63]
≥ 7.30
Cc1cc2c(-c3ccc(Cl)cc3F)nc([C@@H]3CCO[C@H](c4cnn(C)c4)C3)nc2nc1C (single isomer, unassigned) [Example 226]
6.30 to 7.30
Cc1cc([C@@H]2CN(c3nc4nc(C)cnc4c([C@H]4C[C@H](C(F)(F)F)C4)n3)CCO2)cnn1 [Example 281]
5.52 to 6.30

Ask: Recorded pEC50 of COC1CN(c2nc(N3CCO[C@@H](c4cnn(C)c4)C3)nc3nc(C)c(C)nc23)C1 [Example 28] , please.
Result: 5.52 to 6.30

Ask: Recorded pEC50 of Cc1cc([C@@H]2C[C@H](c3nc(-c4ccc(F)cc4F)c4nc(C)c(C)nc4n3)CCO2)ccn1 (single isomer, unassigned) [Example 210] , please.
Result: 6.30 to 7.30

Ask: Recorded pEC50 of Cc1ccc2c(n1)nc(N1CCO[C@@H](c3cnn(C)c3)C1)nc2[C@H]1CC[C@@H](C(F)(F)F)CC1 [Example 142] , please.
Result: 4.00 to 5.52

---

experimental-system: hTREM2 (Homo sapiens, UniProt Q9NZC2)
test-summary: TREM2 activity by cellular Syk phosphorylation (AlphaScreen/AlphaLISA) in TREM2/DAP12-HEK cells, used for Examples 1-305
Format: cell-based
Design: expressed in transfected cells
cond: HEK293 Cells
readout-type: hTREM2 Emax

Cc1nc2nc([C@H]3CCO[C@@H](c4cnn(C)c4)C3)nc(-c3ccc(F)cc3F)c2nc1C (single isomer, unassigned)
+++ (Emax>150 and ≤250)
Cc1ccc(-c2nc(N3CCO[C@@H](c4cnn(C5CC5)c4)C3)nc3nc(C)c(C)nc23)c(F)c1
+++ (Emax>150 and ≤250)
Cn1cc([C@H]2CN(c3cc4ncccc4c(-c4ccc(Cl)cc4F)n3)CCO2)cn1
+++ (Emax>150 and ≤250)
Cc1nc2nc(N3CCO[C@@H](c4cnn(C)c4)C3)nc(-c3ccc(F)c(F)c3F)c2nc1C
+++ (Emax>150 and ≤250)
Cc1ccc(-c2nc(N3CCO[C@@H](c4cnn(C5CC5)c4)C3)nc3nc(C)cnc23)c(F)c1
+++ (Emax>150 and ≤250)
Cc1nc2nc(N3CC[C@H](C(F)F)C3)nc(-c3ccc(Cl)cc3F)c2nc1C
+++ (Emax>150 and ≤250)

Ask: Recorded hTREM2 Emax of `Cc1nc2nc(N3CCO[C@@H](c4cnn(C)c4)C3)nc([C@H]3CCC(C)(C)C3)c2nc1C` , please.
Result: + (Emax>45 and ≤100)

Ask: Recorded hTREM2 Emax of `Cc1nc2nc(N3CCO[C@@H](c4cnn(C)c4)C3)nc(C3=CCC(F)(F)CC3)c2nc1C` , please.
Result: +++ (Emax>150 and ≤250)

Ask: Recorded hTREM2 Emax of `Cc1ccc2c(n1)nc(N1CCO[C@@H](c3cnn(C4CC4)c3)C1)nc2[C@H]1CC[C@H](C(F)(F)F)CC1` , please.
Result: + (Emax>45 and ≤100)

Ask: Recorded hTREM2 Emax of Cc1cc2c(-c3ccc(Cl)cc3F)nc([C@H]3CCO[C@@H](c4cnn(C)c4)C3)nc2nc1C (single isomer, unassigned) , please.
Result: +++ (Emax>150 and ≤250)

Ask: Recorded hTREM2 Emax of Cc1ncc([C@H]2CN(c3nc(-c4ccc(Cl)cc4F)c4cc(C)c(C)nc4n3)CCO2)cn1 (single isomer, unassigned) , please.
Result: +++ (Emax>150 and ≤250)

Ask: Recorded hTREM2 Emax of `Cc1nc2nc(N3CCO[C@@H](c4cnn(C)c4)C3)nc(-c3ccc(F)c(F)c3)c2nc1C` , please.
Result: +++ (Emax>150 and ≤250)

Ask: Recorded hTREM2 Emax of `Cc1cc([C@H]2CN(c3cc4nc(C)ccc4c(-c4ccc(Cl)cc4F)n3)CCO2)ccn1` , please.
Result: ++++ (Emax>250)

Ask: Recorded hTREM2 Emax of Cc1cc([C@@H]2C[C@@H](c3nc(-c4ccc(F)cc4F)c4nc(C)c(C)nc4n3)CCO2)ccn1 (single isomer, unassigned) , please.
Result: ++++ (Emax>250)

---

EC50 overview
experimental-system: hTREM2 (Homo sapiens)
test-summary: TREM2 activity by cellular Syk phosphorylation (AlphaScreen/AlphaLISA) in TREM2/DAP12-HEK cells, used for Examples 1-305
Assay type: cell-based
Set-up: expressed in transfected cells
cond: HEK293 Cells

Use the examples below as a reference point.
Cc1cc([C@H]2C[C@@H](c3cc4nc(C)c(C)nc4c(-c4ccc(Cl)cc4F)n3)CCO2)ccn1 (single isomer, unassigned)
≤ 50 nM
Cc1cc2c(nc(N3CCO[C@@H](c4cnn(C)c4)C3)nc2[C@H]2C[C@H](C(F)(F)F)C2)nc1C
≤ 50 nM
Cc1cc([C@H]2CN(c3nc(-c4ccc(Cl)cc4F)c4ncc(C)nc4n3)CCO2)ccn1
≤ 50 nM

Next:
Ask: Recorded EC50 of `Cc1ccc2c(-c3ccc(Cl)cc3F)nc(N3CCO[C@@H](c4cnn(C5CC5)c4)C3)cc2n1` , please.
Result: 50 to 500 nM

---

pEC50 overview
experimental-system: hTREM2 (Homo sapiens)
test-summary: TREM2 activity by cellular Syk phosphorylation (AlphaScreen/AlphaLISA) in TREM2/DAP12-HEK cells, used for Examples 1-305
Assay type: cell-based
Design: expressed in transfected cells
cond: HEK293 Cells
pEC50: −log10 of the molar value.

Use the examples below as a reference point.
Cc1ccc(-c2cc([C@@H]3CCO[C@H](c4cnn(C)c4)C3)nc3nc(C)c(C)nc23)c(F)c1 (single isomer, unassigned)
5.52 to 6.30
Cc1cc([C@H]2CN(c3nc(-c4ccc(Cl)cc4F)c4nc(C)c(C)nc4n3)CCO2)ccn1
≥ 7.30
Cc1ccc(-c2nc(N3CCO[C@@H](c4ccnc(C)c4)C3)nc3nc(C)c(C)nc23)c(F)c1
≥ 7.30
Cc1ccc2c(-c3ccc(F)cc3F)nc([C@H]3CCO[C@@H](c4cnn(C)c4)C3)nc2n1
4.00 to 5.52
Cc1cc([C@H]2CN(c3nc4nc(C)c(C)nc4c([C@H]4C[C@@H](C(F)F)C4)n3)CCO2)ccn1
≥ 7.30
Cc1cc2c(OC[C@@H]3C[C@H]3C(F)(F)F)nc(N3CCO[C@@H](c4cnn(C)c4)C3)nc2nc1C
5.52 to 6.30
Cc1nc2nc(N3CCO[C@@H](c4cnn(C)c4)C3)nc(N3CCC(C)(C)CC3)c2nc1C
6.30 to 7.30
Cc1ccc(-c2nc(N3CCO[C@@H](c4cnn(C5CC5)c4)C3)nc3nc(C)cnc23)c(F)c1
≥ 7.30
Cc1nc2nc(N3CCO[C@@H](c4cnn(C)c4)C3)nc(N3CCC[C@@H](F)C3)c2nc1C (single isomer, unassigned)
5.52 to 6.30
Cc1nc2nc(N3CCO[C@@H](c4cnn(C)c4)C3)nc(C3CC(F)(F)C3)c2nc1C
5.52 to 6.30

Ask: Param readout = pEC50; param system = hTREM2 (Homo sapiens); param query = `Cc1ccc2cc(N3CCO[C@@H](c4cnn(C)c4)C3)nc(-c3ccc(Cl)cc3F)c2c1` ; response: value
Result: 4.00 to 5.52

Ask: Param readout = pEC50; param system = hTREM2 (Homo sapiens); param query = `Cc1nc2cc(N3CCO[C@@H](c4cnn(C5CC5)c4)C3)nc([C@H]3C[C@H](C(F)(F)F)C3)c2nc1C` ; response: value
Result: 6.30 to 7.30
